- tested.target: Listeriolysin regulatory protein (Listeria monocytogenes serovar 1/2a (strain ATCC BAA-679 / EGD-e), UniProt P22262)
- Sequence (P22262 whole entry): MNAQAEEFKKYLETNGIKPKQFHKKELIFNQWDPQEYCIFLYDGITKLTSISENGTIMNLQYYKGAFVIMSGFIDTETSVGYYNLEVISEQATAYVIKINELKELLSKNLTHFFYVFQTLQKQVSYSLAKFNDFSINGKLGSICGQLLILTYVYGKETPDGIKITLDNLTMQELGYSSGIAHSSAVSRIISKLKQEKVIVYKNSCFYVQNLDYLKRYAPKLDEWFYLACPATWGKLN
- test.description: Binding affinity to Listeria monocytogenes 6-His-tagged PrfA expressed in Escherichia coli BL21 (DE3) pLysS assessed as inhibition of protein binding with biotinylated hpt-DNA by SPR method
Each entry below carries its reported log10(IC50).
property.name: log10(IC50) (log10 of the value in µM)

molecule	log10(IC50)
CN(C)c1c(Cc2cccc3ccccc23)cc(=O)n2c1SCC2C(=O)O.Cl (racemic)	0.26
O=C(O)[C@@H]1CSc2c(C3CC3)c(Cc3cccc4ccccc34)cc(=O)n21	0.65
Cc1ccc(Cc2cc(=O)n3c(c2N(C)C)SCC3C(=O)O)c2ccccc12 (racemic; form 1)	0.18
COc1c(Cc2cccc3ccccc23)cc(=O)n2c1SCC2C(=O)O (racemic)	1.82
Cc1cccc(Cc2cc(=O)n3c(c2N(C)C)SCC3C(=O)O)c1C (racemic)	0.48

----------
- tested.target: Listeriolysin regulatory protein (Listeria monocytogenes serovar 1/2a (strain ATCC BAA-679 / EGD-e))
- Sequence (whole entry): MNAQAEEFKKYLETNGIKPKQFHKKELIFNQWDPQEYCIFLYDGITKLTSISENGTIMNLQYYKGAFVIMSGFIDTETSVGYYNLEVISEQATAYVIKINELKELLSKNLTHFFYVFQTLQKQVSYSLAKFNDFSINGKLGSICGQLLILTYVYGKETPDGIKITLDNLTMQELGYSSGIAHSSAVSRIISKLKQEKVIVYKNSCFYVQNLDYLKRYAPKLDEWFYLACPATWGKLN
- test.description: Binding affinity to GFP expressing Listeria monocytogenes EGD-e PrfA expressed in Escherichia coli assessed as inhibition of bacterial uptake in human Caco2 cells at 20 uM incubated for 4 hrs by flow cytometric method relative to (R)-8-cyclopropyl-7-(naphthalen-1-ylmethyl)-5-oxo-3,5-dihydro-2H-thiazolo[3,2-a]pyridine-3-carboxylic acid

compound	fold change (FC)
CCOc1c(Cc2cccc3ccccc23)cc(=O)n2c1SCC2C(=O)O (racemic)	5
O=C(O)[C@@H]1CSc2c(C3CC3)c(Cc3cnc4ccccc4c3)cc(=O)n21	13
Cc1ccc(Cc2cc(=O)n3c(c2N(C)C)SCC3C(=O)O)c2ccccc12 (racemic; form 1)	0.7
O=C(O)C1CSc2c(O)c(Cc3cccc4ccccc34)cc(=O)n21 (racemic)	5
CS(=O)(=O)Nc1c(Cc2cccc3ccccc23)cc(=O)n2c1SCC2C(=O)O (racemic)	5
COc1c(Cc2cccc3ccccc23)cc(=O)n2c1SCC2C(=O)O (racemic)	7
Nc1c(Cc2cccc3ccccc23)cc(=O)n2c1SCC2C(=O)O (racemic)	3
Cc1cccc(Cc2cc(=O)n3c(c2N(C)C)SCC3C(=O)O)c1C (racemic)	0.6
CC(=O)Nc1c(Cc2cccc3ccccc23)cc(=O)n2c1SCC2C(=O)O (racemic)	5
CS(=O)(=O)c1c(Cc2cccc3ccccc23)cc(=O)n2c1SCC2C(=O)O (racemic)	7
CC(C)Nc1c(Cc2cccc3ccccc23)cc(=O)n2c1SCC2C(=O)O (racemic)	3

// data source = ChEMBL document CHEMBL4177765
